Every entry's value here was drawn from ChEMBL document CHEMBL4689842.

This listing pairs compounds with measured Population Fragmented Nuclei (%).
tested on: U2OS; experiment: Multiplex assay against U2OS; format: toxicity, cell-based; settings: human, 48 h, 10 µM, compound concentration 10 uM, replicate 2
Metric name: Population Fragmented Nuclei (%)

> print(dat)
                                    compound                       metric.name  result
 1  C[C@@]1(C(=O)Nc2ccc(F)nc2)CCCN1c1nc(Nc2cc(C3CC3)n[nH]2)c2cccn2n1  Population Fragmented Nuclei (%)      25
 2  Cn1cc(-c2[nH]c3cc(NC(=O)[C@H](N)C4CCCCC4)cc4c3c2C=NNC4=O)cn1  Population Fragmented Nuclei (%)      40
 3  CN1CCN(c2ccc(OC(F)(F)F)c(Nc3ncc4c(n3)-c3c(c(C(N)=O)nn3CCO)CC4)c2)CC1  Population Fragmented Nuclei (%)      20
 4  CN1CCCC(n2nc(Cc3ccc(Cl)cc3)c3ccccc3c2=O)CC1.Cl (stereo unspecified) [AZELASTINE HYDROCHLORIDE]  Population Fragmented Nuclei (%)      22
 5  CCn1c(=O)c(-c2ccc(Cl)cc2Cl)cc2cnc(Nc3ccc(N4CCNCC4)c(F)c3)nc21  Population Fragmented Nuclei (%)      43
 6  CN(C)C(=O)N[C@H]1CC[C@H](CCN2CCN(c3cccc(Cl)c3Cl)CC2)CC1.Cl [CARIPRAZINE HYDROCHLORIDE]  Population Fragmented Nuclei (%)      20
 7  CN(C)C(=O)/C(C#N)=C/c1ccc(-c2nc3cnc4[nH]ccc4c3n2C2CCCCC2)o1  Population Fragmented Nuclei (%)      34
 8  CC(C)(O)CNc1ncc(-c2ccnc(Nc3ccnc(Cl)c3)n2)c(CC2CC2)n1  Population Fragmented Nuclei (%)      19
 9  Cc1nc(-c2ccc(-c3ccc(C(=O)N4CCc5cc6c(cc54)C4(CCN(C)CC4)CO6)cc3)c(C)c2)no1  Population Fragmented Nuclei (%)       8
10  Cc1c(-c2ccc(O)cc2)n(Cc2ccc(OCCN3CCCCCC3)cc2)c2ccc(O)cc12  Population Fragmented Nuclei (%)      13
11  Cc1[nH]c(/C=C2\C(=O)Nc3ccc(S(=O)(=O)N(C)c4cccc(Cl)c4)cc32)c(C)c1C(=O)N1CCN(C)CC1  Population Fragmented Nuclei (%)      14
12  CNc1nc(NCc2ccc(NS(C)(=O)=O)cc2Cl)cc(-c2ccccn2)n1  Population Fragmented Nuclei (%)      21
13  COc1ncc(-c2ccc3nccc(-c4ccnnc4)c3c2)cc1NS(=O)(=O)c1ccc(F)cc1F  Population Fragmented Nuclei (%)      31
14  CC[C@H](C)C(=O)O[C@H]1C[C@@H](C)C=C2C=C[C@H](C)[C@H](CC[C@@H]3C[C@@H](O)CC(=O)O3)[C@H]21  Population Fragmented Nuclei (%)       3
15  CN1CCN(CCOc2cc(OC3CCOCC3)c3c(Nc4c(Cl)ccc5c4OCO5)ncnc3c2)CC1  Population Fragmented Nuclei (%)       9
16  CNCc1ccccc1-c1csc([C@H](C)Nc2nc(C)nc3cc(OC)c(OC)cc23)c1  Population Fragmented Nuclei (%)      44
